Each item that follows carries a reported mass density.
conditions: 308.15 K; 101 kPa; Liquid

compound: CCCCn1cc[n+](C)c1.F[P-](F)(F)(F)(F)F [1-butyl-3-methylimidazolium hexafluorophosphate]
mass density (kg/m3): 1359.33
//
compound: COCCOCCOC
mass density (kg/m3): 929.6
//
compound: COCCO
mass density (kg/m3): 950.81
//
compound: COCCOC
mass density (kg/m3): 853.47

---

settings: 298.15 K; 101 kPa; Liquid
Entries and their mass density values follow.

molecule: COCCOC
unit-abbrev: kg/m3
mass density: 864.47
//
molecule: CCCCn1cc[n+](C)c1.F[P-](F)(F)(F)(F)F [1-butyl-3-methylimidazolium hexafluorophosphate]
unit-abbrev: kg/m3
mass density: 1367.88
//
molecule: COCCOCCOC
unit-abbrev: kg/m3
mass density: 939.1
//
molecule: COCCO
unit-abbrev: kg/m3
mass density: 960.05

---

conditions: 318.15 K; 101 kPa; Liquid
measured-metric: mass density (kg/m3)

compound: COCCOCCOC
unit-abbrev: kg/m3
observed-result: 919.3

compound: COCCO
unit-abbrev: kg/m3
observed-result: 941.45

compound: CCCCn1cc[n+](C)c1.F[P-](F)(F)(F)(F)F [1-butyl-3-methylimidazolium hexafluorophosphate]
unit-abbrev: kg/m3
observed-result: 1350.87

compound: COCCOC
unit-abbrev: kg/m3
observed-result: 842.27
